Target: T1, MutS (Escherichia coli, UniProt P23909 1-853)
T1 sequence: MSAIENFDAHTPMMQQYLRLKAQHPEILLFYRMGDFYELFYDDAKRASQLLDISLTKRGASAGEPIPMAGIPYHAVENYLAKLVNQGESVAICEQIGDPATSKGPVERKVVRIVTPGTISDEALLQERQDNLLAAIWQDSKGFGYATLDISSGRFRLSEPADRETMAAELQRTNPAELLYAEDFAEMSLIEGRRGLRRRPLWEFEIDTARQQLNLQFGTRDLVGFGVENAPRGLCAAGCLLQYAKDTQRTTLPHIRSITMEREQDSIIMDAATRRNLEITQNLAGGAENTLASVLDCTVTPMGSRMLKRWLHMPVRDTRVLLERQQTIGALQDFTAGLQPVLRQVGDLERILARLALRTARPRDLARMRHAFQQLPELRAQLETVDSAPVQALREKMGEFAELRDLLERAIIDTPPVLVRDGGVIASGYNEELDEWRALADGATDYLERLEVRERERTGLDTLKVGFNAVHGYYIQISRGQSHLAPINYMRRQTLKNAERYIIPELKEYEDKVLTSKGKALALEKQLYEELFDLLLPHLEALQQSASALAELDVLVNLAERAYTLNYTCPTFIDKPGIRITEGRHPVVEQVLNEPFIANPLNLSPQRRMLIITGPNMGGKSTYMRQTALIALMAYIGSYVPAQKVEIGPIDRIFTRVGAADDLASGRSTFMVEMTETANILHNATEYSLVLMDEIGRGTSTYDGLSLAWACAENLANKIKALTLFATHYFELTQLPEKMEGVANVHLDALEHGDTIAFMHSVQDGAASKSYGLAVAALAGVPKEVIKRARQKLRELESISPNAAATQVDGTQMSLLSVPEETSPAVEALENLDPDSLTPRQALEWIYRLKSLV
Experiment: EMSA (Scatchard); 1 mM ADP, 5 mM Mg2+; EMSA: 20 mM HEPES pH 8.0, 125 mM KCl, 1 mM ADP, 5 mM MgCl2, 1 mg/ml BSA, 9% glycerol, 37 C 20 min (gel at 4 C); fluorescence: 25 mM Tris-HCl pH 7.5, 125 mM KCl, 5 mM MgCl2, 1 mM ADP, 20 C
Conditions: protein: recombinant; tags: His-tag (Ni-NTA purified); chain copies: 2; label: 5'-32P; blunt; strand 1 A24 : strand 2 Tg7
Reported Metric: Kd
Answer format reminder: number followed by unit.

Exercise: What value of measured Kd is listed for duplex IV (A/Tg) (dsDNA, thymidine glycol (5R,6S) at T7 of strand 2) DNA 1: CAAGCCTATGCCCTCAGCACCCAAGGTGCC DNA 2: GGCACCTTGGGTGCTGAGGGCATAGGCTTG ?
Solution: 25 nM
